Biological target: DR1 (DRB1*0101) (Homo sapiens, UniProt P01903+P01911, A100R/D57E/F55L/F60I/F76Y/I96L/L162R/M171V/P40L/Q125E/R42F/V115G/Y59C)
Assay: biochemical
Type: binding
No end group written: not given here.
In plain terms, low IC50, meaning strictly below 700 nM, gives criterion met, and everything else gives criterion not met.

A selection of reference data follows.
* QNYIQNDTGFYTLHV [Peptide 9014.0077] | criterion met
* TPEWIERQTVLQHSF [Peptide 89.0048] | criterion met
* LNVLKTSNAKAAMLA [Peptide 89.0003] | criterion met
* VDFIVNDNDYLTQAE [Peptide 90.0031] | criterion not met
* GTDMKLRLAASPETH [Peptide 9014.0096] | criterion met
* WQLIRLENAILFTAR [Peptide 90.0211] | criterion met
* ETEHVEPLTPSGAMP [Peptide 9014.0143] | criterion met
* ETELVEPLFPSGAMP [Peptide 9014.0150] | criterion met
* LKVLIKQHSLYTHLQ [Peptide 89.0061] | criterion met
* PDGQAEQATSNYYIV [Peptide 1543.43] | criterion not met

INPUT: Dear colleague, could you confirm whether IC50 of DWCIIGMGVTPSVAE [Peptide 89.0096] falls below 700 nM? Thanks.
OUTPUT: criterion not met

INPUT: Then this sequence: LMQLKCPPLLITSNI [Peptide 89.0057]
OUTPUT: criterion met

* * *

Molecular target: DRB1*1201 (Homo sapiens, UniProt P01903+P01911, A100R/A169T/D57E/D86V/F55L/H45Y/K41T/L162R/M171V/P40S/Q125H/Q178H/Q39Y/Q99D/R42G/S66L/T262R/V114A/V67L/W38E/Y59H/Y61H/Y89S)
Experiment: biochemical
Property label: IC50 (nM)
# number only, unit nM dropped from output

INPUT: If you can, please state the reported IC50 value of CC[C@H](C)[C@H](NC(=O)[C@H](Cc1c[nH]cn1)NC(=O)[C@H](C)NC(=O)[C@H](Cc1ccc(O)cc1)NC(=O)[C@H](CC(C)C)NC(=O)[C@@H](NC(=O)[C@H](Cc1ccccc1)NC(=O)[C@@H]1CCCN1C(=O)[C@H](CCC(N)=O)NC(=O)[C@@H](NC(=O)[C@H](CC(C)C)NC(=O)[C@@H](NC(=O)[C@H](CCCCN)NC(=O)[C@@H](N)Cc1ccccc1)[C@@H](C)O)[C@@H](C)CC)[C@@H](C)CC)C(=O)N[C@@H](CCC(N)=O)C(=O)O [Peptide 89.0025] .
OUTPUT: 513

* * *

Attribute: IC50
Target: HLA-A*0201 (HLA-A2.1) (Homo sapiens, UniProt P04439, D140Y/D185E/D98H/E176V/E277Q/G131W/G231S/I119V/I121R/I166T/I218V/L300P/L318F/N151K/N90K/P208A/P217A/Q86G/Q94H/R138H/R169H/T345S)
Experiment: biochemical
Assay type: binding
No end group written: not given here.
Answer format: numeric, nM implied, no suffix.

Completed entries (count: 6):
• YTCGIQNSV [Peptide 9013.0096] = 1970
• YTNWGEIYI [Peptide 1578.49] = 293
• SLPVSPRLQV [Peptide 9013.0222] = 7310
• EVLLLVHNV [Peptide 9013.0021] = 3030
• QLHTQVLFIA [Peptide 9013.0242] = 3940
• MAFEYALLA [Peptide 1578.09] = 226

INPUT: Name the reported IC50 value associated with the sequence FLSYFKLFL [Peptide 1578.37]
OUTPUT: 30
